Value source: ChEMBL document CHEMBL3112550

Study System: Human immunodeficiency virus type 1 integrase (Human immunodeficiency virus 1)
Measurement Notes: Non-competitive inhibition of HIV-1 integrase expressed in Escherichia coli using [32P]-labeled U5B/U5A DNA as substrate after 1 hr by double-reciprocal plot analysis in presence of Mg2+
Measurement Label: Ki (nM)

| Sample Smiles | Measurement Label | Reported Measurement |
| --- | --- | --- |
| NC(Cc1ccc(Cl)c(Cl)c1)(P(=O)(O)O)P(=O)(O)O | Ki | 2000 |

* * *

Study System: Human immunodeficiency virus type 1 integrase (Human immunodeficiency virus 1)
Measurement Notes: Inhibition of HIV-1 integrase expressed in Escherichia coli using [32P]-labeled U5B/U5A DNA as substrate assessed as inhibition of 3'-processing reaction up to 250 uM after 2 hrs by PAGE analysis in presence of Mg2+
Active and inactive are the calls of the source. The rule behind the calls is not given here.

| Sample Smiles | Study System | inhibition |
| --- | --- | --- |
| CCc1cccc[n+]1CC(O)(P(=O)(O)O)P(=O)(O)O | Human immunodeficiency virus type 1 integrase (Human immunodeficiency virus 1) | inactive |
| O=P(O)(O)C(O)(C[n+]1ccc(-c2ccccc2)cc1)P(=O)(O)O | Human immunodeficiency virus type 1 integrase (Human immunodeficiency virus 1) | inactive |
| O=P(O)(O)C(O)(C[n+]1cccc(O)c1)P(=O)(O)O | Human immunodeficiency virus type 1 integrase (Human immunodeficiency virus 1) | inactive |

* * *

Study System: UniProt:Q7ZJM1
Measurement Notes: Inhibition of HIV-1 integrase expressed in Escherichia coli using [32P]-labeled U5B/U5A DNA as substrate assessed as inhibition of 3'-processing reaction after 2 hrs by PAGE analysis in presence of Mn2+
pIC50: −log10 of the molar value.
Below: a set of entries, each annotated with reported pIC50.

| Sample Smiles | Study System | pIC50 |
| --- | --- | --- |
| O=P(O)(O)C(Cc1ccc(Cl)c(Cl)c1)(Cc1ccc(Cl)c(Cl)c1)P(=O)(O)O | UniProt:Q7ZJM1 | 6.10 |
| NC(Cc1ccc(Cl)c(Cl)c1)(P(=O)(O)O)P(=O)(O)O | UniProt:Q7ZJM1 | 5.70 |
| O=P(O)(O)C(Cc1ccc(Cl)c(Cl)c1)P(=O)(O)O | UniProt:Q7ZJM1 | 5.30 |
| O=P(O)(O)C(O)(Cc1ccc(Cl)c(Cl)c1)P(=O)(O)O | UniProt:Q7ZJM1 | 5.30 |
| O=P(O)(O)C(O)(Cc1ccc(Cl)cc1)P(=O)(O)O | UniProt:Q7ZJM1 | 5.30 |

* * *

Study System: Human immunodeficiency virus type 1 integrase (Human immunodeficiency virus 1, UniProt Q7ZJM1, G140S)
Sequence (Q7ZJM1 entry or part of it G140S): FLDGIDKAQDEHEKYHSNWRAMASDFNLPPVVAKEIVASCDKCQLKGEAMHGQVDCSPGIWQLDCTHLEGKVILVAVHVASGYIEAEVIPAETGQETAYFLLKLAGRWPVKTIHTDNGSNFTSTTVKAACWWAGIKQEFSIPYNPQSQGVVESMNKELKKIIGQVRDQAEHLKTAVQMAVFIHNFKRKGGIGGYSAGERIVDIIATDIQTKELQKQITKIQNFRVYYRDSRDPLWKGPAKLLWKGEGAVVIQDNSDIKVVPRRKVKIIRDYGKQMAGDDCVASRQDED
Measurement Notes: Inhibition of HIV-1 integrase G140S mutant expressed in Escherichia coli using [32P]-labeled U5B/U5A DNA as substrate assessed as inhibition of 3'-processing reaction after 2 hrs by PAGE analysis in presence of Mg2+

| Sample Smiles | IC50 / µM |
| --- | --- |
| O=P(O)(O)C(O)(Cc1ccc(Cl)c(Cl)c1)P(=O)(O)O | 35 |
| NC(Cc1ccc(Cl)c(Cl)c1)(P(=O)(O)O)P(=O)(O)O | 7 |

* * *

Study System: Human immunodeficiency virus type 1 integrase (Human immunodeficiency virus 1, UniProt Q7ZJM1)
Measurement Notes: Displacement of [32P]-labeled U5B/U5A DNA from HIV-1 integrase expressed in Escherichia coli in presence of Mg2+
Below: a set of entries, each annotated with reported IC50.
Measurement Label: IC50 (µM)

| Sample Smiles | Unit Abbrev | Qualifying Sign | Reported Measurement |
| --- | --- | --- | --- |
| O=P(O)(O)C(O)(Cc1ccc(Cl)cc1)P(=O)(O)O | µM | = | 70 |
| NC(Cc1ccc(Cl)c(Cl)c1)(P(=O)(O)O)P(=O)(O)O | µM | > | 256 |
| O=P(O)(O)C(O)(Cc1ccc(Cl)c(Cl)c1)P(=O)(O)O | µM | = | 150 |
| O=P(O)(O)C(Cc1ccc(Cl)c(Cl)c1)P(=O)(O)O | µM | = | 130 |
| O=P(O)(O)C(Cc1ccc(Cl)c(Cl)c1)(Cc1ccc(Cl)c(Cl)c1)P(=O)(O)O | µM | = | 100 |

* * *

Below: a set of entries, each annotated with reported pIC50.
Study System: Human immunodeficiency virus type 1 integrase (Human immunodeficiency virus 1)
Measurement Notes: Inhibition of HIV-1 GST-tagged integrase-His6-tagged LEDGF complex expressed in Escherichia coli BL21(DE3) using [32P]-labeled U5B/U5A DNA as substrate assessed as inhibition of 3'-processing reaction after 2 hrs by PAGE analysis in presence of Mg2+
pIC50: −log10 of the molar value.

| Sample Smiles | Study System | pIC50 |
| --- | --- | --- |
| NC(Cc1ccc(Cl)c(Cl)c1)(P(=O)(O)O)P(=O)(O)O | Human immunodeficiency virus type 1 integrase (Human immunodeficiency virus 1) | 5.15 |
| O=P(O)(O)C(O)(Cc1ccc(Cl)cc1)P(=O)(O)O | Human immunodeficiency virus type 1 integrase (Human immunodeficiency virus 1) | < 3.60 |
| O=P(O)(O)C(O)(Cc1ccc(Cl)c(Cl)c1)P(=O)(O)O | Human immunodeficiency virus type 1 integrase (Human immunodeficiency virus 1) | < 3.60 |
| O=P(O)(O)C(Cc1ccc(Cl)c(Cl)c1)P(=O)(O)O | Human immunodeficiency virus type 1 integrase (Human immunodeficiency virus 1) | < 3.60 |

* * *

Study System: Human immunodeficiency virus type 1 integrase (Human immunodeficiency virus 1) (UniProt Q7ZJM1)
Sequence (Q7ZJM1 as listed by the source): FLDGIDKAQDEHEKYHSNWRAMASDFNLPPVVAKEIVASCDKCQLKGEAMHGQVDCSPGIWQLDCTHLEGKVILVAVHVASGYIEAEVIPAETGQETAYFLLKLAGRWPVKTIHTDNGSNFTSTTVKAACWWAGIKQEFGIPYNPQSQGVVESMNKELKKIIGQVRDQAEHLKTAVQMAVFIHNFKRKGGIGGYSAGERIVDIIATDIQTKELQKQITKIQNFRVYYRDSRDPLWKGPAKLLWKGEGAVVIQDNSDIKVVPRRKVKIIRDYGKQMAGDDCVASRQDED
Measurement Notes: Inhibition of HIV-1 integrase expressed in Escherichia coli using [32P]-labeled U5B/U5A DNA as substrate assessed as inhibition of 3'-processing reaction up to 250 uM after 2 hrs by PAGE analysis in presence of Mg2+
Activity calls are given as the source filed them. No cut-off for these calls is given here.
Measurement Label: inhibition

| Sample Smiles | Measurement Label | Reported Measurement |
| --- | --- | --- |
| NC(Cc1ccccc1)(P(=O)(O)O)P(=O)(O)O | inhibition | inactive |
| O=P(O)(O)C(O)(CCCCc1ccccc1)P(=O)(O)O | inhibition | inactive |
| O=P(O)(O)C(O)(CCc1ccccc1)P(=O)(O)O | inhibition | inactive |
| O=P(O)(O)C(O)(C[n+]1ccccc1)P(=O)(O)O | inhibition | inactive |
| NC(C[n+]1ccccc1)(P(=O)(O)O)P(=O)(O)O | inhibition | inactive |
| O=P(O)(O)C(O)(Cc1ccccc1)P(=O)(O)O | inhibition | inactive |

* * *

Study System: Human immunodeficiency virus type 1 integrase (Human immunodeficiency virus 1, UniProt Q7ZJM1)
Measurement Notes: Competitive inhibition of HIV-1 integrase expressed in Escherichia coli using [32P]-labeled U5B/U5A DNA as substrate after 1 hr by double-reciprocal plot analysis in presence of Mg2+
pKi: −log10 of the molar value.

| Sample Smiles | pKi |
| --- | --- |
| O=P(O)(O)C(O)(Cc1ccc(Cl)c(Cl)c1)P(=O)(O)O | 4.42 |

* * *

Below: a set of entries, each annotated with reported Ki.
Study System: Human immunodeficiency virus type 1 integrase (Human immunodeficiency virus 1)
Measurement Notes: Non-competitive inhibition of HIV-1 integrase expressed in Escherichia coli using [32P]-labeled U5B/U5A DNA as substrate after 1 hr by double-reciprocal plot analysis in presence of Mn2+
Measurement Label: Ki (nM)

| Sample Smiles | Reported Measurement |
| --- | --- |
| O=P(O)(O)C(O)(Cc1ccc(Cl)c(Cl)c1)P(=O)(O)O | 4400 |
| NC(Cc1ccc(Cl)c(Cl)c1)(P(=O)(O)O)P(=O)(O)O | 1000 |

* * *

Below: a set of entries, each annotated with reported pIC50.
Study System: Human immunodeficiency virus type 1 integrase (Human immunodeficiency virus 1)
Measurement Notes: Inhibition of HIV-1 integrase expressed in Escherichia coli using [32P]-labeled U5B-2/U5A DNA as substrate assessed as inhibition of strand transfer reaction after 2 hrs by PAGE analysis in presence of Mn2+
pIC50: −log10 of the molar value.

| Sample Smiles | pIC50 |
| --- | --- |
| NC(Cc1ccc(Cl)c(Cl)c1)(P(=O)(O)O)P(=O)(O)O | 5.70 |
| O=P(O)(O)C(Cc1ccc(Cl)c(Cl)c1)(Cc1ccc(Cl)c(Cl)c1)P(=O)(O)O | 6.10 |
| O=P(O)(O)C(O)(Cc1ccc(Cl)cc1)P(=O)(O)O | 5.22 |
| O=P(O)(O)C(O)(Cc1ccc(Cl)c(Cl)c1)P(=O)(O)O | 5.40 |
| O=P(O)(O)C(Cc1ccc(Cl)c(Cl)c1)P(=O)(O)O | 5.30 |

* * *

Study System: Human immunodeficiency virus type 1 integrase (Human immunodeficiency virus 1, UniProt Q7ZJM1)
Measurement Notes: Inhibition of HIV-1 GST-tagged integrase-His6-tagged LEDGF complex expressed in Escherichia coli BL21(DE3) using [32P]-labeled U5B/U5A DNA as substrate assessed as inhibition of 3'-processing reaction after 2 hrs by PAGE analysis in presence of Mn2+
Measurement Label: IC50 (µM)

| Sample Smiles | Measurement Label | Unit Abbrev | Reported Measurement |
| --- | --- | --- | --- |
| O=P(O)(O)C(O)(Cc1ccc(Cl)cc1)P(=O)(O)O | IC50 | µM | 8 |
| O=P(O)(O)C(O)(Cc1ccc(Cl)c(Cl)c1)P(=O)(O)O | IC50 | µM | 4.5 |
| NC(Cc1ccc(Cl)c(Cl)c1)(P(=O)(O)O)P(=O)(O)O | IC50 | µM | 2 |
| O=P(O)(O)C(Cc1ccc(Cl)c(Cl)c1)P(=O)(O)O | IC50 | µM | 6 |
